Hey, just so you know, these numbers are from patent US20060159617A1.

Let's look at some compounds and their measured Ki.
# assay_target: α1 receptor
# measurement_notes: Alpha-1 receptor competition binding assay with [3H]-Prazosin
# condition_summary: apparent Ki, rat frontal cortex
Give just the numeric value; nM need not be written.

Some compounds with recorded Ki:
COc1ccccc1C1CCN(CCCN2CC[S][Re]3(=[O])[S]CC[N]3C(=O)C2)CC1 (stereo not shown) | 48
O=C1CN(CCCN2CCC(c3ccccc3)CC2)CC[S][Re]2(=[O])[S]CC[N]12 (stereo not shown) | 39
O=C1CN(CCCN2CCC(O)(c3ccc(Cl)cc3)CC2)CC[S][Re]2(=[O])[S]CC[N]12 (stereo not shown) | 980

What does the data say about its Ki? Entry: O=C1CN(CCCN2CCC(Cc3ccccc3)CC2)CC[S][Re]2(=[O])[S]CC[N]12 (stereo not shown) 322
